# Tested on: HIV-IIIb
# experimental.protocol: Test A: Antiviral Assay in MT4 Cells
# Type: cell-based, HIV-1
# experimental.setup: Human immunodeficiency virus 1, MT4, 120 h; inhibition of virus-induced cell killing, from dose response curve at 0.01 μM (10 nM); MT-4 cells, HIV-IIIb, 5 days; values normalized to 100%; read-out: % inhibition at 0.01 μM
Label fulfilled when inhibition at 0.01 µM >= 80%; otherwise not fulfilled.

| molecule | target.or.test.system | qualitative.label |
| --- | --- | --- |
| Cn1nc(NS(C)(=O)=O)c2c(Cl)ccc(-c3ccc(C#CC(C)(C)S(=O)(=O)C4CC4)nc3[C@H](Cc3cc(F)cc(F)c3)NC(=O)Cn3cc(C(F)(F)F)cn3)c21 [Example 65] | HIV-IIIb | not fulfilled |
| CC1(S(=O)(=O)Nc2nn(CC(F)F)c3c(-c4ccc(C#CC(C)(C)S(=O)(=O)C5CC5)nc4[C@H](Cc4cc(F)cc(F)c4)NC(=O)Cn4nc(C(F)F)c5c4C(F)(F)CCC5(F)F)ccc(Cl)c23)CC1 [Example 37] | HIV-IIIb | fulfilled |
| CCS(=O)(=O)Nc1nn(C)c2c(-c3ccc(C#CC(C)(C)S(=O)(=O)C4CC4)nc3[C@H](Cc3cc(F)cc(F)c3)NC(=O)Cn3nc(C(F)F)c4c3C(F)(F)[C@@H]3C[C@H]43)ccc(Cl)c12 [Example 6] | HIV-IIIb | fulfilled |
| CCS(=O)(=O)Nc1nn(C)c2c(-c3ccc(C#CC(C)(C)S(=O)(=O)C4CC4)nc3[C@H](Cc3cc(F)cc(F)c3)NC(=O)Cn3nc(C(F)(F)F)c4c3C(F)(F)[C@@H]3C[C@H]43)ccc(Cl)c12 [Example 7] | HIV-IIIb | fulfilled |

* * *

# Test system: HIV-IIIb
# experimental.protocol: Test A: Antiviral Assay in MT4 Cells
# Format: cell-based, HIV-1
# experimental.setup: Human immunodeficiency virus 1, MT4, 120 h; inhibition of virus-induced cell killing, from dose response curve at 0.01 μM (10 nM); MT-4 cells, HIV-IIIb, 5 days; values normalized to 100%; read-out: % inhibition at 0.01 μM

| test.smiles | inhibition at 0.01 µM [%] |
| --- | --- |
| Cn1nc(Nc2nnc(C(C)(C)O)o2)c2c(Cl)ccc(-c3ccc(C#CC(C)(C)S(=O)(=O)C4CC4)nc3[C@H](Cc3cc(F)cc(F)c3)NC(=O)Cn3nc(C(F)F)c4c3C(F)(F)[C@@H]3C[C@H]43)c21 | 100 |
| Cn1nc(NS(C)(=O)=O)c2c(Cl)ccc(-c3ccc(C#CC(C)(C)S(=O)(=O)C4CC4)nc3[C@H](Cc3cc(F)cc(F)c3)NC(=O)Cc3nnn[nH]3)c21 | 0 |
| Cn1nc(NS(C)(=O)=O)c2c(Cl)ccc(-c3ccc(C#CC(C)(C)S(=O)(=O)C4CC4)nc3[C@H](Cc3cc(F)cc(F)c3)NC(=O)Cn3ccnn3)c21 | 0 |
| Cn1nc(NS(C)(=O)=O)c2c(Cl)ccc(-c3ccc(C#CC(C)(C)S(=O)(=O)C4CC4)nc3[C@H](Cc3cc(F)cc(F)c3)NC(=O)Cn3cccn3)c21 | 0 |
| Cn1nc(NS(C)(=O)=O)c2c(Cl)ccc(-c3ccc(C#CC(C)(C)S(=O)(=O)C4CC4)nc3[C@H](Cc3cc(F)cc(F)c3)NC(=O)CCn3cccn3)c21 | 100 |
